Just for reference, patent US12234236B1 is where these values come from.

assay: Single-dose oral administration pharmacokinetic study in SD rats; format: in vivo; settings: Sprague-Dawley, rat, whole blood, 5 mg/kg, read-out: AUC0-48h
Kindly state AUC(0-t) for each of the entries shown.

Ask: Endpoint output: AUC(0-t) of Cc1cc(-n2nc3c(c2-n2ccn(-c4ccc5c(cnn5C)c4F)c2=O)[C@H](C)N(C(=O)c2cc4cc([C@H]5CCOC(C)(C)C5)ccc4n2[C@@]2(c4noc(=O)[nH]4)C[C@@H]2C)CC3)cc(C)c1F [Orforglipron, orforglipron, reference compound] . Value?
Result: 7220 ng·h/mL

Ask: Endpoint output: AUC(0-t) of Cc1cc(-n2nc3c(c2-n2ccn(-c4ccc5c(cnn5C5CCC5)c4F)c2=O)[C@H](C)N(C(=O)c2cc4cc(C5CCOCC5)ccc4n2[C@@]2(c4noc(=O)[nH]4)C[C@@H]2C)CC3)cc(C)c1F . Value?
Result: 17000 ng·h/mL

Ask: Endpoint output: AUC(0-t) of Cc1cc(-n2nc3c(c2-n2ccn(-c4ccc5c(cnn5C5CC5)c4F)c2=O)[C@H](C)N(C(=O)c2cc4nc(C5CCOCC5)ccc4n2[C@@]2(c4noc(=O)[nH]4)C[C@@H]2C)CC3)cc(C)c1F (single isomer, unassigned) [Compound 19] . Value?
Result: 60000 ng·h/mL

Ask: Endpoint output: AUC(0-t) of Cc1cc(-n2nc3c(c2-n2ccn(-c4ccc5c(cnn5C5CC5)c4F)c2=O)[C@H](C)N(C(=O)c2cc4nc(C5CCOCC5)ccc4n2[C@@]2(c4noc(=O)[nH]4)C[C@@H]2C)CC3)cc(C)c1F [Compound 65] . Value?
Result: 71800 ng·h/mL
